test: Oral bioavailability in Sprague-Dawley rat at 5 mg/kg by LC-MS/MS analysis; format: ADME, organism-based; settings: in vivo
Label rule, in plain words: bioavailability of 40% and up is Condition met, under 40% is Condition not met.

COMPOUND | ASSIGNED LABEL
O=C(N[C@H](c1ccccn1)C1CC1)c1ccc2[nH]nc(-c3ccc(N4[C@H]5CC[C@H]4CC(O)C5)cc3)c2c1 (stereo in doubt; 86) | Condition not met

In: In plain terms: is recorded bioavailability at least 40% for O=C(N[C@@H](c1ccccn1)C1CC1)c1ccc2[nH]nc(-c3ccc(N4C5CCC4COC5)cc3)c2c1 ?
Out: Condition met

In: In plain terms: is recorded bioavailability at least 40% for O=C(N[C@H](c1ccccn1)C1CCCC1)c1ccc2[nH]nc(-c3ccc(N4[C@H]5CC[C@H]4CC(O)C5)cc3)c2c1 (stereo in doubt; 76) ?
Out: Condition not met

In: In plain terms: is recorded bioavailability at least 40% for O=C(N[C@H](CC1CC1)c1ccccn1)c1ccc2[nH]nc(-c3ccc(N4[C@H]5CC[C@H]4CC(O)C5)cc3)c2c1 (some centres not stated) ?
Out: Condition not met

In: In plain terms: is recorded bioavailability at least 40% for O=C(N[C@H](c1ncccn1)C1CCCC1)c1ccc2[nH]nc(-c3ccc(N4[C@H]5CC[C@H]4CC(O)C5)cc3)c2c1 (some centres not stated) ?
Out: Condition not met

In: In plain terms: is recorded bioavailability at least 40% for O=C(N[C@@H](c1ccccn1)C1CC1)c1ccc2[nH]nc(-c3ccc(N4[C@H]5CC[C@H]4CC(O)C5)cc3)c2c1 (stereo in doubt; 75) ?
Out: Condition met

---

target: Cytochrome P450 3A4 (Homo sapiens, UniProt P08684)
Sequence (P08684 whole entry): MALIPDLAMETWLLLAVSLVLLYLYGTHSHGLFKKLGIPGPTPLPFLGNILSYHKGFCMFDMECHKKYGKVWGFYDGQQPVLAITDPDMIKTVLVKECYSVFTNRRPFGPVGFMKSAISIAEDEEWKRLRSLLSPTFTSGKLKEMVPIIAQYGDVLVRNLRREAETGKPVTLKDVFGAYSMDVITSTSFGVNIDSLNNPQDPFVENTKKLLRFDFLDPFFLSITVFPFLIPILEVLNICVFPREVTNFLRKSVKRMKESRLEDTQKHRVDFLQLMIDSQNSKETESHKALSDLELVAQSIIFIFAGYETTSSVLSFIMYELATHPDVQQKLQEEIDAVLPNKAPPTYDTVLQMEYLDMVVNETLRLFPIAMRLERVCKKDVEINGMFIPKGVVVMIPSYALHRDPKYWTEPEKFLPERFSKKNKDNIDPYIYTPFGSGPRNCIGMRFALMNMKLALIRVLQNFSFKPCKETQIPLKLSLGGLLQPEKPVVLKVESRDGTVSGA
For each of the compounds below, state its pIC50.
One number for each entry, as −log10 of the molar value.

COMPOUND | TARGET DESC | OBSERVED RESULT
O=C(N[C@@H](c1ccccn1)C1CC1)c1ccc2[nH]nc(-c3ccc(N4C5CCC4COC5)cc3)c2c1 | Cytochrome P450 3A4 (Homo sapiens, UniProt P08684) | 5.85
O=C(N[C@@H](c1ccccn1)C1CC1)c1ccc2[nH]nc(-c3ccc(N4[C@H]5CC[C@H]4CC(O)C5)cc3)c2c1 (stereo in doubt; 75) | Cytochrome P450 3A4 (Homo sapiens, UniProt P08684) | 5.89
O=C(N[C@H](c1ccccn1)C1CCCC1)c1ccc2[nH]nc(-c3ccc(N4[C@H]5CC[C@H]4CC(O)C5)cc3)c2c1 (stereo in doubt; 88) | Cytochrome P450 3A4 (Homo sapiens, UniProt P08684) | 6.10

In: Quote pIC50 reported for O=C(N[C@H](c1ccccn1)C1CCCC1)c1ccc2[nH]nc(-c3ccc(N4C5CCC4COC5)cc3)c2c1 please.
Out: 6.03

---

test: AUC in athymic CD1 nude mouse at 10 mg/kg, po by LC-MS/MS analysis; type: ADME, organism-based; design: dose 10 mg/kg, route oral; details: plasma
For each of the molecules below, state its AUC.
Numbers only, in ng·h/mL.

Some entries whose results are on file:
MOLECULE | AUC [ng·h/mL]
O=C(Nc1ccc2[nH]nc(-c3ccc(N4CCOCC4)cc3)c2c1)C(c1ccsc1)N1CCCC1 (racemic) | 7900
CN1CCN(c2ccc(-c3n[nH]c4ccc(C(=O)NCC5(N6CCOCC6)CCCCC5)cc34)cc2)CC1 | 480
CN1CCN(c2ccc(-c3n[nH]c4ccc(NC(=O)C(c5ccsc5)N5CCCC5)cc34)cc2)CC1 (racemic) | 590

In: Quote AUC reported for O=CN1[C@@H]2CC[C@H]1C[C@@H](Oc1ccc(-c3n[nH]c4ccc(C(=O)NC(c5ccsc5)C5CCC5)cc34)cc1)C2 (mixture of isomers) please.
Out: 30

---

target: Serine/threonine-protein kinase PLK4 (Homo sapiens, UniProt O00444)
Sequence (O00444 whole entry): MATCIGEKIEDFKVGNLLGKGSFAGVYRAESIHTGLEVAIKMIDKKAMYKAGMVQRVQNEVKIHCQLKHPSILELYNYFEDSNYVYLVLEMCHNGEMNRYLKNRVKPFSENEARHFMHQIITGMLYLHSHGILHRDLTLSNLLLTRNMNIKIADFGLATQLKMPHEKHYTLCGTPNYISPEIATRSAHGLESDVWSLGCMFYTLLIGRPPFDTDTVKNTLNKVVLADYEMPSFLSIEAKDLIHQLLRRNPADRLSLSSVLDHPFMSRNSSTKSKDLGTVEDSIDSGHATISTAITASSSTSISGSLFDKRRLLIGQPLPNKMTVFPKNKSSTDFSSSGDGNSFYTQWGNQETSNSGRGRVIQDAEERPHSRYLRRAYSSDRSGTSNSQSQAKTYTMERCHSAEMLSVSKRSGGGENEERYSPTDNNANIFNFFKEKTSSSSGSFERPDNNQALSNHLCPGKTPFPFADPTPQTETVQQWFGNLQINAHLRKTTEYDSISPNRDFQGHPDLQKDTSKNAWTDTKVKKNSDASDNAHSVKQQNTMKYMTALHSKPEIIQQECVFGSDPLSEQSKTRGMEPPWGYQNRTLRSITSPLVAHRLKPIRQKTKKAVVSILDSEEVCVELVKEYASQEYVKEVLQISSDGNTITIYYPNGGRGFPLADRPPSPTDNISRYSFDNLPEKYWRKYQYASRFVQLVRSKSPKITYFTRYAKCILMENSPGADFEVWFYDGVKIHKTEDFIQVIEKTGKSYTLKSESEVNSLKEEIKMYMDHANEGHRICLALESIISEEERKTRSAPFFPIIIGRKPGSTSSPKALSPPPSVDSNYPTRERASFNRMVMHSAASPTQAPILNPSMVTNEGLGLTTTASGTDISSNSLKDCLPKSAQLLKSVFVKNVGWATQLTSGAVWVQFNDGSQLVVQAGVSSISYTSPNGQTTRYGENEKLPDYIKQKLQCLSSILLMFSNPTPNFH
PARAMETER: pIC50
Numbers only, as −log10 of the molar value.

In: Quote pIC50 reported for O=C(N[C@@H](c1ccccn1)C1CC1)c1ccc2[nH]nc(-c3ccc(N4[C@H]5CC[C@H]4CC(O)C5)cc3)c2c1 (stereo in doubt; 75) please.
Out: 6.89

---

tested on: MDA-MB-468; assay: Cytotoxicity against human MDA-MB-468 cells after 5 days by sulforhodamine B assay; assay type: functional
PARAMETER: GI50 (nM)
Numbers only, in nM.

Some entries whose results are on file:
MOLECULE | GI50 / nM
O=C(N[C@H](c1ccccn1)C1CCCC1)c1ccc2[nH]nc(-c3ccc(N4[C@H]5CC[C@H]4CC(O)C5)cc3)c2c1 (stereo in doubt; 88) | 74
O=C(N[C@@H](c1ccccn1)C1CC1)c1ccc2[nH]nc(-c3ccc(N4[C@H]5CC[C@H]4CC(O)C5)cc3)c2c1 (stereo in doubt; 87) | 210

In: Quote GI50 reported for O=C(N[C@H](c1ccccn1)C1CC1)c1ccc2[nH]nc(-c3ccc(N4[C@H]5CC[C@H]4CC(O)C5)cc3)c2c1 (stereo in doubt; 74) please.
Out: 16

---

Biological target: Dual specificity protein kinase TTK (Homo sapiens)
Sequence (P33981 whole entry): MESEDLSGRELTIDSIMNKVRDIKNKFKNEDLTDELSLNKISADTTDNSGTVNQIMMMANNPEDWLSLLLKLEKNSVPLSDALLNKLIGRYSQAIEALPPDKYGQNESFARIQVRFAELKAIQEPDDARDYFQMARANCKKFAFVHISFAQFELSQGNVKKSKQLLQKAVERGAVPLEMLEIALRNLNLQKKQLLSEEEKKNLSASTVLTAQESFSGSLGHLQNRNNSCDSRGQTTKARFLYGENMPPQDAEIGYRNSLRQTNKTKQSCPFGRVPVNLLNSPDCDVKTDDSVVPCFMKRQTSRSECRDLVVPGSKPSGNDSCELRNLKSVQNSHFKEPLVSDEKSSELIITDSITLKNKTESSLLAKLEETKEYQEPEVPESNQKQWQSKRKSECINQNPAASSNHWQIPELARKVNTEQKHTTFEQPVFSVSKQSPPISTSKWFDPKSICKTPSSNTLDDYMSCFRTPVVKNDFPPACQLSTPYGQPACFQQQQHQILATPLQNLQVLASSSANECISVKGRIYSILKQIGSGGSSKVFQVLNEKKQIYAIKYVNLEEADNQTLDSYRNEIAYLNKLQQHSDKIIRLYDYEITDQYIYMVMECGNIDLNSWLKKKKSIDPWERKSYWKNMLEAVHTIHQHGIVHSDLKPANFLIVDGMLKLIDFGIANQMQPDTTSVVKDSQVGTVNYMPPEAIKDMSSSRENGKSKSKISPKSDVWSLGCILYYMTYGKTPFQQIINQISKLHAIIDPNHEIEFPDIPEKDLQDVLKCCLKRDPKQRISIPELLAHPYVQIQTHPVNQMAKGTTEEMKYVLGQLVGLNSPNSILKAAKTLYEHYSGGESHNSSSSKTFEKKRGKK
Test: Inhibition of TTK (unknown origin) using p38 MAPK as substrate by fluorescence assay
PARAMETER: IC50 (nM)
One number for each entry, in nM.

In: Quote IC50 reported for CC(C)(O)CNc1cc(NC2CCCCC2)nn2c(-c3ccc(C(=O)NC4CC4)cc3)cnc12 please.
Out: 13

---

biological target: Aurora kinase B/Inner centromere protein (Homo sapiens, UniProt Q96GD4); experiment: Inhibition of AURKB/INCENP (unknown origin) preincubated for 15 mins prior to ATP addition by FRET-based homogenous assay
Sequence (Q96GD4 whole entry): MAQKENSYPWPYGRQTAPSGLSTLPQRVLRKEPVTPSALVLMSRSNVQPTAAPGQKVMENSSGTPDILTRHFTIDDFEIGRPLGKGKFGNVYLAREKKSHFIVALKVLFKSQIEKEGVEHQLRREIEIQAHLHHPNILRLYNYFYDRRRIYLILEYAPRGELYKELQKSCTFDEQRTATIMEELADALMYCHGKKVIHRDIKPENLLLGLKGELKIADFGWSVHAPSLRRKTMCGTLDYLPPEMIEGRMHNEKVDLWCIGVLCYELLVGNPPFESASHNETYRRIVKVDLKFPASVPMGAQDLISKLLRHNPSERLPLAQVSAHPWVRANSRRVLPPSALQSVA
Sequence (Q9NQS7 whole entry, further chain): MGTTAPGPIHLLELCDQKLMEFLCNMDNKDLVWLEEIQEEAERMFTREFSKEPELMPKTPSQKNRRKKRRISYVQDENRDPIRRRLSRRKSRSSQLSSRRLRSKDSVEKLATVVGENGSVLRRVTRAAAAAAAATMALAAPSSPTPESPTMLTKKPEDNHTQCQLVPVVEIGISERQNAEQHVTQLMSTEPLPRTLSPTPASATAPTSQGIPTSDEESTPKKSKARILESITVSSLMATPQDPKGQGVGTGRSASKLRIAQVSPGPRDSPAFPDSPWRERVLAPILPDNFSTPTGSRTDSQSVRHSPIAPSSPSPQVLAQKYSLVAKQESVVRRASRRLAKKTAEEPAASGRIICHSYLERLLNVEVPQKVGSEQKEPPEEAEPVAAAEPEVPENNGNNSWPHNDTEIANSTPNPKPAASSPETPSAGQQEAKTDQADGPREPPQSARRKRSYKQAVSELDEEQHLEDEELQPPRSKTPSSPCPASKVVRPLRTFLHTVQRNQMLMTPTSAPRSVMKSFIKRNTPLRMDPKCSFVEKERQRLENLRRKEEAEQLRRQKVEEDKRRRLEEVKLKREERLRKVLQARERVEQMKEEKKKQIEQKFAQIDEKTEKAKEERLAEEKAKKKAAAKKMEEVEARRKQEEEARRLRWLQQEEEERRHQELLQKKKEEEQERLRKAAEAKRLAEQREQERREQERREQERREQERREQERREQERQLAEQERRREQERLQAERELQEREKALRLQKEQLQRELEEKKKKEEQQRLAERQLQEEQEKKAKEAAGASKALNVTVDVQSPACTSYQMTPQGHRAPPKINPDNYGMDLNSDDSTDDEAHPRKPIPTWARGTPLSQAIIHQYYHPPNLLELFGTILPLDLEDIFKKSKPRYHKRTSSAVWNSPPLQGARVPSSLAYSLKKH
pIC50: −log10 of the molar value.
Label rule, in plain words: pIC50 of 6 and up is Yes, under 6 is No.

Past entries and their recorded results:
MOLECULE | TARGET DESC | ASSIGNED LABEL
CN1CCC(Oc2ccc(-c3n[nH]c4ccc(NC(=O)C(c5ccccn5)C5CCCC5)cc34)cc2)CC1 (racemic) | Aurora kinase B/Inner centromere protein (Homo sapiens, UniProt Q96GD4) | Yes
O=C(N[C@H](c1ccccn1)C1CC1)c1ccc2[nH]nc(-c3ccc(N4C5CCC4COC5)cc3)c2c1 | Aurora kinase B/Inner centromere protein (Homo sapiens, UniProt Q96GD4) | Yes
CN1CCC(Oc2ccc(-c3n[nH]c4ccc(C(=O)NC(c5ccccn5)C5CCCC5)cc34)cc2)CC1 (racemic) | Aurora kinase B/Inner centromere protein (Homo sapiens, UniProt Q96GD4) | Yes
NS(=O)(=O)c1cccc(-c2n[nH]c3ccc(C(=O)NC(c4ccccc4)C4CC4)cc23)c1 (configuration not stated) | Aurora kinase B/Inner centromere protein (Homo sapiens, UniProt Q96GD4) | No

In: In plain terms: is recorded pIC50 at least 6 for CC(C)[C@H](NC(=O)c1ccc2[nH]nc(-c3ccc(N4C5CCC4COC5)cc3)c2c1)c1ccccc1Cl ?
Out: No

---

target: Dual specificity protein kinase TTK (Homo sapiens, UniProt P33981); assay: Inhibition of TTK (unknown origin) transfected in human HCT116 cells after 4 hrs by near infrared imager analysis
PARAMETER: pEC50
Numbers only, as −log10 of the molar value.

In: Quote pEC50 reported for O=C(N[C@@H](c1ccccn1)C1CC1)c1ccc2[nH]nc(-c3ccc(N4[C@H]5CC[C@H]4CC(O)C5)cc3)c2c1 (stereo in doubt; 75) please.
Out: 7.85
